Test system: A498
Experiment: NCI tumour cell line growth inhibition, 48 h
Activity calls are given as the source filed them. No stated cut-off is given here; in the data, active = GI50 up to about 1.1 µM and inactive = higher.
The following compounds are shown together with reported GI50 values.
observed-property: GI50

| compound | val |
| --- | --- |
| COC12C=CC(CC1)C1C(=O)c3c(C)c(C)n(C)c3C(=O)C12 (stereo unspecified) | > 100 µM (inactive) |
| CCOC(=O)c1cnc2oc3ccc(O)cc3c2c1C | 98.2 µM (inactive) |
| Cc1cc2c(O)c(c1)CN(CC(=O)O)Cc1cc(C)cc(c1O)CN(CC(=O)O)Cc1cc(C)cc(c1O)CN(CC(=O)O)C2 | > 100 µM (inactive) |
| COc1ccc(N2C(=O)C3c4[nH]c5ccc([N+](=O)[O-])cc5c4C4CCC(C(C)(C)C)CC4C3C2=O)cc1 (stereo unspecified) | 2.26 µM (inactive) |
| Cc1cc(C2CC(O)C(CO)O2)c(F)cc1F (stereo unspecified) | > 100 µM (inactive) |
| COc1cc(-c2cc(=O)c3c(O)c(OC)c(OC)c(OC)c3o2)cc(OC)c1OC | 2.92 µM (inactive) |
| CC(C)=CCc1c2c(c3occ(-c4ccc(O)c(O)c4)c(=O)c3c1O)C=CC(C)(C)O2 | 15.3 µM (inactive) |
| O=c1[nH][nH]c(=O)n1Cc1ccccc1Cn1c(=O)[nH][nH]c1=O | > 100 µM (inactive) |
| COC(=O)c1ccc(C)cc1C1CN=NC12Cc1cc(C)c(C)cc1C2=O (stereo unspecified) | 57.4 µM (inactive) |
| CN(CCc1ccc(Br)cc1)CCN1CCCCC1 | 21 µM (inactive) |
| COC(=O)C1C2CC3C(OC(=O)C31)C2OC(=O)[C@](OC)(c1ccccc1)C(F)(F)F (stereo partly specified) | > 100 µM (inactive) |
| CC(=O)NNC(=S)N/C=C1/C(=O)Oc2ccccc2C1=O | > 100 µM (inactive) |
| CC(C)(C)C1CCC(O)(c2ccccc2)CC1 (stereo unspecified) | > 100 µM (inactive) |
| NC1CC2C3CCC2C1C3=O (stereo unspecified) | > 100 µM (inactive) |
| Cc1c(/C=N/NC(=S)Nc2ccccc2)c(=O)n(-c2ccccc2)n1C | 71.4 µM (inactive) |
| CCCc1c(O)nc(Nc2nc3ccccc3[nH]2)[nH]c1=O | > 100 µM (inactive) |
| CC1=C(C(=O)OC23CC4CC(CC(C4)C2)C3)C(c2ccccc2OC(F)F)C(C(=O)OC23CC4CC(CC(C4)C2)C3)=C(C)N1 (stereo unspecified) | > 100 µM (inactive) |
| C=C(CCOC)CCC1CCCCC(=C)[C@H]1OC(C)=O (stereo partly specified) | > 100 µM (inactive) |
| C[Si](C)(C)[C@@]1([Se]c2ccccc2)CC[C@@H]1C(=O)c1ccccc1 | > 100 µM (inactive) |
| O=c1ccn(CC2(CO)CCCC2)c(=O)[nH]1 | 7.64 µM (inactive) |
| CC1OC(OC2C[C@](O)(C(=O)CBr)Cc3c(O)c4c(c(O)c32)C(=O)c2ccccc2C4=O)C(F)C(O)C1O (stereo partly specified) | 11.8 µM (inactive) |

----------
The following compounds are shown together with reported GI50 values.
Test system: HCT-116
Assay: NCI tumour cell line growth inhibition, 48 h
Activity calls are given as the source filed them. No stated cut-off is given here; in the data, active = GI50 up to about 1.1 µM and inactive = higher.

| mol | experimental-system | GI50 |
| --- | --- | --- |
| FC(F)(Sc1ncccn1)c1nc2ccccc2o1 | HCT-116 | 84.3 µM (inactive) |
| O=C1CCc2cc3c(cc21)CC1(Cc2cc4c(cc2C1)CCCC4)C3 | HCT-116 | 37.2 µM (inactive) |
| Cc1cc(Cl)nc(NC(=O)CSc2ccc(Cl)cc2)n1 | HCT-116 | > 100 µM (inactive) |
| O=[N+]([O-])c1ccc(/C=C(/c2ccc([N+](=O)[O-])o2)S(=O)(=O)c2ccccc2)o1 | HCT-116 | 1.71 µM (inactive) |
| O=C(NC(Nc1ccc(F)cc1)(C(F)(F)F)C(F)(F)F)C(C(F)(F)F)C(F)(F)F | HCT-116 | 4.2 µM (inactive) |
| CN(C)CCC(/C=C/c1ccccc1)=N\Nc1ccccc1 | HCT-116 | 1.9 µM (inactive) |
| CC(C)(C)c1cc(C(=O)/C=C/c2cc[nH]n2)cc(C(C)(C)C)c1O | HCT-116 | 2.43 µM (inactive) |

----------
Tested on: SK-OV-3
Test: NCI tumour cell line growth inhibition, 48 h
Calls of active or inactive are those of the source. Rule as the data show it: active = GI50 up to about 1.1 µM and inactive = higher. Residues, ends and D or L forms follow the SMILES beside them.

| molecule | GI50 |
| --- | --- |
| O=C1CNc2cc(N3CCN(c4cccc(C(F)(F)F)c4)CC3)ccc2N1 | > 100 µM (inactive) |
| CCn1c2ccccc2n2c(=O)c3c(c(C#N)c12)CCCC3 | > 100 µM (inactive) |
| CCCCCCCCCCCCCCCCCc1cccc(OCOCCOC)c1C(=O)O | 14 µM (inactive) |
| CC(C)(C)c1ccc(S(=O)(=O)N2C(c3cccc(C4CC[C@@H](C(=O)O)N4S(=O)(=O)c4ccc(C(C)(C)C)cc4)c3)CC[C@H]2C(=O)O)cc1 (some centres undefined) | > 100 µM (inactive) |
| C(=C\c1nccs1)/c1cccc(/C=C/c2nccs2)n1 | > 50 µM (inactive) |
| CCN(CC)CC(=O)N1CCc2c([nH]c3ccccc23)C1c1cccnc1 (centres undefined) | > 100 µM (inactive) |
| CN1CCN(CCCCN2c3ccccc3Sc3cc(N=[N+]=[N-])ccc32)CC1 | 8.49 µM (inactive) |
| CCN(CC)CSc1nc2ccccc2o1 | > 100 µM (inactive) |
| Oc1ccc(O)c(Sc2nnc(CCCCCCCCc3nnc(Sc4cc(O)ccc4O)o3)o2)c1 | > 100 µM (inactive) |
| O=C(O)COc1c(Cl)cc(Cl)c2cccnc12 | > 100 µM (inactive) |
| CCNCCCCNCCCCNCCCCNCCCCNCC | > 100 µM (inactive) |
| CCCC(=O)OCC1OC2OC(C)(C)OC2C2OC(C)(C)OC12 (centres undefined) | > 100 µM (inactive) |
| O=C(O)c1c(-c2c3ccc(=O)cc-3oc3cc(O)ccc23)cc2ccccc2c1-c1ccccc1 | > 100 µM (inactive) |
| Cc1cc2c(O)c(c1)CN(CC(=O)O)Cc1cc(C)cc(c1O)CN(CC(=O)O)Cc1cc(C)cc(c1O)CN(CC(=O)O)C2 | > 100 µM (inactive) |
| COC(=O)C(CC1=C(O)Nc2ccccc2N1)/C(=N/NC(N)=O)C(=O)Nc1ccccc1C (centres undefined) | > 100 µM (inactive) |
| COc1ccc(OC2OC(CO)C(OCc3ccccc3)C(OCc3ccccc3)C2OCc2ccccc2)cc1 (centres undefined) | > 100 µM (inactive) |
| CCC1=C(C)/C(=C/c2[nH]c(CBr)c(CC)c2C)N=C1CBr | 19 µM (inactive) |
| N=S(c1ccccc1)c1ccccc1[N+](=O)[O-] (centres undefined) | 33 µM (inactive) |
| CC1(C)OC(C(=O)Nc2cc3c4ccccc4ccc3c3ccccc23)C(C(=O)N2CCCCC2)O1 (centres undefined) | 20.6 µM (inactive) |
| C/C(=N\NC(=O)c1ccccc1O)c1cccc(/C(C)=N/NC(=O)c2ccccc2O)n1.[Cl-].[Cl-].[Zn+2] | 6.15 µM (inactive) |
| CN(C)/C=N/c1nc2c(ncn2C2OC(CO)C(O)C2O)c(=O)[nH]1 (centres undefined) | > 100 µM (inactive) |
| CN1C(c2ccccc2)CC(=Nc2ccccc2)CC1c1ccccc1 (centres undefined) | 2.95 µM (inactive) |
| CC(C)=NNc1cnnc2ccc([N+](=O)[O-])cc12 | > 100 µM (inactive) |
| CN(C)c1cccc(OC(=O)NCCCl)c1 | > 100 µM (inactive) |
| Cc1ccc(S(=O)(=O)N/N=C/C2(c3ccccc3)c3ccccc3-c3ccccc32)cc1 | 15.4 µM (inactive) |
| Cc1cc(C)c(-c2noc(-c3ccc(Cl)cc3)c2C2=NCCN2)c(C)c1 | 13.7 µM (inactive) |
| CCOC(=O)C(=O)/C(=C/N1C(=O)CC(=O)NC1=S)C(=O)OCC | > 100 µM (inactive) |
| CCOC(=O)C(Sc1ccccc1)c1c(OC)cc(=O)oc1/C=[N+](/[O-])c1ccc(N(C)C)cc1 (centres undefined) | 75.7 µM (inactive) |
| Cc1cc(C2CC(O)C(CO)O2)c(F)cc1F (centres undefined) | > 100 µM (inactive) |
| COc1nc(NC2OC(COC(C)=O)C(OC(C)=O)C(OC(C)=O)C2OC(C)=O)c2c(OC(C)=O)cc(=O)oc2n1 (centres undefined) | > 100 µM (inactive) |
| CC1=NN2C(c3ccc([N+](=O)[O-])cc3)=CSC2=NC(C)(C)C1 | > 100 µM (inactive) |
| C(CCc1nnc2c(n1)CCCC2)Cc1nnc2c(n1)CCCC2 | > 100 µM (inactive) |
| COC1CCON1C(=O)c1ccccc1 (centres undefined) | > 10 µM (inactive) |
| C[C@@H](CC(O)C1OC1(C)C)[C@@H]1CC[C@]2(C)C3=CCC4C(C)(C)C(O)CC[C@]4(C)C3CCC12C (some centres undefined) | 19.8 µM (inactive) |
| Nc1cc2nc(-c3ccccc3)cn2cn1 | > 100 µM (inactive) |
| CC1=Cc2ccc(C)cc2C(=O)C1=O | 13.9 µM (inactive) |
| CCC(C)C(NC(=O)C(CC(C)C)NC(=O)CNC(=O)C(NC(=O)C1CCCN1C(=O)C(CC(C)C)NC(=O)C(N)Cc1ccccc1)C(C)CC)C(=O)NC(CC(C)C)C(N)=O (centres undefined) (H-FLPIGLIL-NH2; configuration not given here) | > 75 µM (inactive) |
| CC(C)(C)c1cc(C(=O)/C=C/c2cc[nH]n2)cc(C(C)(C)C)c1O | 15.7 µM (inactive) |
| O=c1[nH][nH]c(=O)n1Cc1ccccc1Cn1c(=O)[nH][nH]c1=O | > 100 µM (inactive) |
